# assay procedure: Index of Bioavailability (plasma TT AUC, oral vs i.v.)
# Format: in vivo
# test conditions: rats, oral vs i.v. bolus
Non-standard residues stand in square brackets, D forms with d. Residues, ends and D or L forms follow the SMILES beside them. dNMeCha = CN[C@H](CC1CCCCC1)C(=O)O; dCha = N[C@H](CC1CCCCC1)C(=O)O; dPip = O=C(O)[C@H]1CCCCN1
# Percent Relative Activity (Index of Bioavailability) per record follows
reported property: Percent Relative Activity (Index of Bioavailability)

[[record]]
molecule = "Cl.Cl.N=C(N)NCCC[C@@H](C=O)NC(=O)[C@@H]1CCCN1C(=O)[C@H]1CCCCN1 [Example 1] (H-[dPip]-Pro-Arg-aldehyde)"
endpoint_value = "38%"

[[record]]
molecule = "Cl.N=C(N)NCCC[C@@H](C=O)NC(=O)[C@@H]1CCCN1C(=O)[C@@H](Cc1ccccc1)NS(=O)(=O)c1ccc(C(=O)O)cc1"
endpoint_value = "13%"

[[record]]
molecule = "Cl.N=C(N)NCCC[C@@H](C=O)NC(=O)[C@@H]1CCCN1C(=O)[C@@H](Cc1ccccc1)NC(=O)c1cccnc1"
endpoint_value = "3%"

[[record]]
molecule = "CNCC(Cc1ccccc1)C(=O)N1CCC[C@H]1C(=O)N[C@H](C=O)CCCNC(=N)N.Cl.Cl.O (stereo partly shown)"
endpoint_value = "8%"

[[record]]
molecule = "Cl.Cl.Cl.N=C(N)NCCC[C@@H](C=O)NC(=O)[C@@H]1CCCN1C(=O)[C@H]1C[C@@H](Oc2ccccc2)CN1.O (relative stereo)"
endpoint_value = "16%"

[[record]]
molecule = "CN(C)S(=O)(=O)N[C@H](Cc1ccccc1)C(=O)N1CCC[C@H]1C(=O)N[C@H](C=O)CCCNC(=N)N.Cl"
endpoint_value = "26%"

[[record]]
molecule = "CC(=O)N[C@H](CC1CCCCC1)C(=O)N1CCC[C@H]1C(=O)N[C@H](C=O)CCCNC(=N)N.Cl [Example 72] (Ac-[dCha]-Pro-Arg-aldehyde)"
endpoint_value = "9%"

[[record]]
molecule = "CNC(CC(=O)N1CCC[C@H]1C(=O)N[C@H](C=O)CCCNC(=N)N)c1ccccc1.Cl.Cl.O.O (stereo partly shown)"
endpoint_value = "28%"

[[record]]
molecule = "Cl.Cl.N=C(N)NCCC[C@@H](C=O)NC(=O)[C@@H]1CCCN1C(=O)C1NCCS1 (stereo partly shown)"
endpoint_value = "5%"

[[record]]
molecule = "CN[C@H](CC1CCCCC1)C(=O)N1CCC[C@H]1C(=O)N[C@H](C=O)CCCNC(=N)N.Cl [Example 75] (H-[dNMeCha]-Pro-Arg-aldehyde)"
endpoint_value = "13%"

[[record]]
molecule = "CN[C@@H](C(=O)N1CCC[C@H]1C(=O)N[C@@H](CCCNC(=N)N)C(O)S(=O)(=O)[O-])c1ccccc1.O=S(=O)(O)O.[Na+] (stereo partly shown)"
endpoint_value = "21%"

[[record]]
molecule = "CCS(=O)(=O)N[C@H](CC1CCCCC1)C(=O)N1CCC[C@H]1C(=O)N[C@H](C=O)CCCNC(=N)N.Cl"
endpoint_value = "19%"

[[record]]
molecule = "CCS(=O)(=O)N[C@H](Cc1ccccc1)C(=O)N1CCC[C@H]1C(=O)N[C@H](C=O)CCCNC(=N)N.Cl"
endpoint_value = "31%"

